Tested on: MS2 coat protein
Assay: apparent KD of MS2 coat protein; higher = weaker reporter binding
Experimental conditions: Eterna round: R107; input ligand: none
Categories are defined by ranges of apparent KD of MS2 coat protein, namely low interval: < 30 nM; middle interval: ≥ 30 nM and < 100 nM; high interval: ≥ 100 nM

The following sequences have reported results that may help.
Polymer sequence	Assigned class
CGCAACCAACAUGAGGAUCACCCAUGUGAAGGAGCGCCGAAUAAGGCAGGUAGGUCGCACAUGAAUAAAUCAUGAAGGAAGCGAA [XArg-A 12 NuPack]	middle interval
GGGUGUGAUCCGGAUACCAGUGAACAUGAGGAUCACCCAUGUGACCUGAGAUCGGCUCUUCACCCUUGGCAGCCGCGGUCGCAGG [Same State Theophylline B GF14]	low interval
GCCUAGCAGCGAAGGAGCGAGGUAACUUAAUAAAUAAAUACAAGAGGAUCACCCUUGUUUCCUCAGGUAGGUCGCGCUGCUAGGC [SSAB Alternative Aptamer #2 NP+V+V2]	low interval

Request: Category of GGGCUUGUGGUGCGGCGUGUUCCGCUCCGUCGAGGACCGGUACGGCCGCCACUCGACAUGAGGAUCACCCAUGUGCGAGCGCGCG [#1 Exclusion - Tryptophan A Attempt #7 (HarryS)] , please.
Response: low interval

Request: Category of CAUUGUUAGACGGCCGCCACUUUUGGUUCGGAACGAUCGAUUGGACAUGAGGAUCACCCAUGUGGAAGGACCGGGUCUAAUCAAA [theeternabot_sameState_MS2_Trp_B_20] , please.
Response: high interval

Request: Category of UUUAAUUUAAUAGAUACCAGCUAAUAAUAAUCCCGGAGGACAUGAGGAUCACCCAUGUGGAGCCCUUGGCAGCUAAAAUAAAUUU [Exclusion - Theophylline B] , please.
Response: middle interval

Request: Category of GCUGGGUGCGCAAGGACCUGGCGUUGCGAUACCAGCACGGUAACGUGCCCUUGGCAGCGCACAUGAGGAUCACCCAUGUGGUGUG [#1 Exclusion - Theophylline A Attempt #20 (HarryS)] , please.
Response: high interval

Request: Category of ACGGAGAUUGCUAAAUGUUGGCGAGCGGAUACCAGCCUAUAAUCGGGCCCUUGGCAGCCGACAUGAGGAUCACCCAUGUAAACAA [Gelelaor] , please.
Response: high interval

Request: Category of GGUGGCGUGACGGAUACCAGCCACCACCGUUAGACCACAUGAGGAUCACCCAUGUUGGGUGGCCCUUGGCAGCUGUCGUGCGGCG [#1 Same State - Theophylline B Attempt #18 (HarryS)] , please.
Response: high interval

====

Tested on: K4 kissing-loop RNA reporter
Assay: apparent KD of K4 kissing-loop reporter; higher = weaker reporter binding
Experimental conditions: Eterna round: R107; input ligand: tryptophan 2.4 mM
Measure name: apparent KD of K4 kissing-loop reporter (nM)
All answers are understood in nM, so give the number only.

Polymer sequence	Value units	Measured value
UCGCUCGAGUAAGGAUAUCAAUAUCAAAGGUCGUAGUGAUGUUAUACCAGGCCAAUUUGGCGGUAGUGAGAAGGUACUAGCAGUU [theeternabot_sameState_KL_FMN_B_38]	nM	405
CGCAGUGAUGUUGCGAGCAGCUACAGGGAAGGAGCGCUUUAGUAAGCAGGUAGGUCGCCCACGCAGUGAUGUUGCGUCAUAGGGU [Exclusion Arginine A GF 20]	nM	111
UUUUAAAUGUCUGAUACCAGAGAAAAUUUAUGUAGUGAUGUUAUAUACAAAUUAAAUAAGCUCCCUUGGCAGCAGUAUUAAUUUU [AstrosExc-TheB#9]	nM	552
GUAGGAUGAGGAGGAGGAUGAAUUACUGAAGGAGCGCAGAGAAAUGCAGGUAGGUCGCGGUAAAGAAGUAUAGUGAUGUUAUAUC [#09 K4 Arginine A Same State]	nM	598

Record summary for GUUACGCAUGGAAGGAGCGCUCUCCGGUUGAUCGACACAGUGAUGUUGUGGUUCUACCGUAAGCAGGUAGGUCGCCAUGUGUAAC [Ex Arginine B K4 14] : reported apparent KD of K4 kissing-loop reporter = 828

Record summary for AUUAAUAUCACGGCCGCCACUGUAUAUUGUUUUUAUAUUUAGAAUAAUUGCCAGUGAUGUUGGAACAGGACCGGGUGAGUUUAUA [#28 K4 Tryptophan B Same State] : reported apparent KD of K4 kissing-loop reporter = 323

====

Test system: K4 kissing-loop RNA reporter
Assay: apparent KD of K4 kissing-loop reporter; higher = weaker reporter binding
Experimental conditions: Eterna round: R107; input ligand: FMN 200 uM
Values of apparent KD of K4 kissing-loop reporter greater than or equal to 200 nM map to T; values below map to F.

Request: Hi, just wondering whether AAUGAGGACACUUGCAACAGUCCUCGAAUACGAGGACCGGUACGGCCGCCACUCGAUAACUUGCAGUGAUGUUGCAAGUAAGAAU [(T)''-(K)'-(T)'-(T1)-(T2)-(K1)-(K2)_Design2] shows apparent KD of K4 kissing-loop reporter of 200 nM or higher.
Response: T

Request: Hi, just wondering whether AUUUUAUUAACUGAUACCAGACUUAAUGAUUUGUAAAUUACUAGUGAUGUUAGUGAUUCUGUCCCUUGGCAGCAGUAUUUAUUUA [JR_ExcTheophyB_Sub013] shows apparent KD of K4 kissing-loop reporter of 200 nM or higher.
Response: F

Request: Hi, just wondering whether CCGAAGAACCAGUGAUGUUGGUUGACUAGACAGGAUAUGAGCAACAUCAGAAGGGUCUGGCUUCGGGAGUGGGUCACGCUGACCU [Iserreanor] shows apparent KD of K4 kissing-loop reporter of 200 nM or higher.
Response: T

Request: Hi, just wondering whether UGUAAGCGCGUAGAUACCAGCAGACGAGUGAUGUUCGAGAGAUUAAGGAAAAGAAAGUGAUGCCCUUGGCAGCUAAUCAUAAGCG [whbob_Ex_Theo_B_sa95] shows apparent KD of K4 kissing-loop reporter of 200 nM or higher.
Response: T

Request: Hi, just wondering whether AUUUUUUUGUCAGGAUAUUAGUGUUGGUUUGGUUUGUUAGUGAUGUUGAUAUUUGUUUUAUGUAUUUAAGAAGGGAUUUAGCUGU [ppdemullin] shows apparent KD of K4 kissing-loop reporter of 200 nM or higher.
Response: T

====

Tested on: MS2 coat protein
Assay: apparent KD of MS2 coat protein; higher = weaker reporter binding
Experimental conditions: Eterna round: R107; input ligand: arginine 13.2 mM
Let's look at some sequences and their measured apparent KD of MS2 coat protein.
Your answer should be a number followed by the unit of measure.

Answered cases to consult:
> print(dat)
                           polymer.sequence  measured.value
1  ACACGGAAUGAUGGAUCACCUCGUGAAUCACGAGGACCGGUACGGCCGCCACUCGAAAACCGUGACCUGUACGAAAAGUGCAGGA          322 nM
2  GAACAUGAGGAUCACCCAUGUAAAACAGAUACCAGUGAUAUAAUACACCCUUGGCAGCUGAAGCUGAAUAAUAAUUCCCUCAAGC [Same State Theophylline A GF1]           17 nM

Record summary for AGCUCAUAGAGUGAUACCAGACUACAUGAGGAUCACCCAUGUUUCUUUUGGUUAUCAUGUGUCCCUUGGCAGCACAAGAAGAGCA [JR_ExcTheophyB_Sub015] : reported apparent KD of MS2 coat protein = 13.4 nM

Record summary for GGAUUCAACUCGGCCGCCACUGGUGAUCCUAAUGUACAUGAGGAUCACCCAUGUACAUGAGAAUACAGGACCGGGAGAUAAGCAA [Tryptophan B V2 (+4A)] : reported apparent KD of MS2 coat protein = 20.1 nM

Record summary for AGAUUCGACACGGCCGCCACUUGUGGUGGAGGGUCUUUAGUCACACAUGAGGAUCACCCAUGUACAAGGACCGGGUGUUGAGUCU [XTryp B #23] : reported apparent KD of MS2 coat protein = 19.1 nM

====

Test system: K4 kissing-loop RNA reporter;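 note: bound reporter read as fluorescence of individual clusters on recovered sequencing chips by microscopy, with normalized cluster intensities fitted with a binding model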
Assay: apparent KD of K4 kissing-loop reporter; higher = weaker reporter binding
Experimental conditions: Eterna round: R107; input ligand: none
Measure name: apparent KD of K4 kissing-loop reporter (µM)
All answers are understood in µM, so give the number only.

Answered cases to consult:
Polymer sequence	Measure name	Measured value
CGCAGUGAUGUUGCGAGUAGCUACAGGGAAGGAGCGUGCUAGAGCACAGGUAGGUCGCCCACGCAGUGAUGUUGUGUCAAAGGGU [Exclusion Arginine A GF 11]	apparent KD of K4 kissing-loop reporter	0.165
CUCACAGUGAUGUUGUGGGCCGAGAGUGAUACCAGCCGUAUUUGUGGCCCUUGGCAGCGCAGAACCAGUGAUGUUGGUUACUUGG [Same State Theophylline A GF 23]	apparent KD of K4 kissing-loop reporter	0.271
CAUACGCAUGGAGGAUAUGAGAUUUCUCAUAUUAUUUAAUAUUCUCAGUGAUGUUGAGAAAUAAACUCAGAAGGCCAUGUGUAUG [Ex FMN B 3]	apparent KD of K4 kissing-loop reporter	0.313

Record summary for CGCCGCAAGGCGAGCGCUCCCACUCCGGAAGGAGCGCCCGCAAGGGCAGGUAGGUCGCCGGAGUGAUGUUCCGGUGGAGGGCUCG [#2 Exclusion - Arginine A Attempt #15 (Inspired by Omei)] : reported apparent KD of K4 kissing-loop reporter = 0.376

Record summary for CCUAGUGAUGUUAGGUCGUGCUCCUAUGAUACCAGCGUAGUCACUCGCCCUUGGCAGCAUUCCUUAUAAGGCGGUCGGGCGCGGU [theeternabot_sameState_KL_Theo_A_34] : reported apparent KD of K4 kissing-loop reporter = 0.193

Record summary for GCGGCGGGCCAAGGAUAUAUAUUGGAGUGAUGUUGUUCAUUUAUUUGAGCUAGUGAUGUUGGUCAAAUAGAAGGUGGCCCGCCGC [whbob_Ex_FMNB__2th217] : reported apparent KD of K4 kissing-loop reporter = 0.0593

Record summary for GGACGACAGUCGGCCGCCACUCACAGCCGCCAGUGAUGUUGGAUUGUAGCGGAGUGAUGUUUCGCGAGGACCGGGACUGCAGUCC [Same State Tryptophan B GF 15] : reported apparent KD of K4 kissing-loop reporter = 0.455

Record summary for GAGCCAACCGUCGAUACCAGCCGCACGUCAUUCACUCAAUGCUGAGGAGCCAGUGAUGUUGGCCCUUGGCAGCGAAGCAACGAUC [theeternabot_exclusion_KL_Theo_B_43] : reported apparent KD of K4 kissing-loop reporter = 0.0935
